The entries below are paired with their reported EC50.
- studySystem: T1, human AMHRII (anti-Mullerian hormone receptor type 2) (human, UniProt Q16671 18-573)
- T1 construct: whole, on cells; also called AMHR2; human AMHR2
- T1 sequence (looked up): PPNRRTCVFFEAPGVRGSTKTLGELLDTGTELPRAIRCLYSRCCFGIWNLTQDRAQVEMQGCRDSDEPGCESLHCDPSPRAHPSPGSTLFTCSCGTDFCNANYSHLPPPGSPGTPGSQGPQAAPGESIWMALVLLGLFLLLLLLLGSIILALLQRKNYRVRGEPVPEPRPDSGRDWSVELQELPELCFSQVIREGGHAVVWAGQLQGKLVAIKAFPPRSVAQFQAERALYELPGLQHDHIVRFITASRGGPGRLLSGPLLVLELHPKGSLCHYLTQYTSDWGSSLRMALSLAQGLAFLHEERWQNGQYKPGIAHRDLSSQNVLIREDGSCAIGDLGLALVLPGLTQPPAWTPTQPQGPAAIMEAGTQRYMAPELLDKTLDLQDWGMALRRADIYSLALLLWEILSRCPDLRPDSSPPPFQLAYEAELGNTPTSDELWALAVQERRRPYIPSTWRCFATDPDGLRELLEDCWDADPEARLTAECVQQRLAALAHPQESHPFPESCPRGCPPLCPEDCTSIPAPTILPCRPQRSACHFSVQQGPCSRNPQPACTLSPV
- experimentSummary: FACS on CHO-K1 cells over-expressing human AMHR2
- Experimental: CHO-K1 cells over-expressed AMHR2 were harvested from flasks. 100 μl of 1×10⁶ cells/ml of cells were incubated with the humanized antibodies in 3-fold serial dilutions starting from 300 nM to 0.001 nM for 30 minutes on ice. After being washed with 200 μl of FACS buffer twice, cells were incubated with secondary antibody for 30 minutes on ice. Cells were washed with 200 μl of FACS buffer twice and analyzed by FACS.
Report the value in nM with no unit label.

// returns reported EC50 for input 31D9B3 H1L3 hIgG1 (antibody, V domains shown, Humanized, human IgG1; also called 31D9B3 H1L3 hlgG1) VH: QVQLVQSGAEVKKPGASVKVSCKASGYTFTDYWVSWVRQAPGQGLEWMGEIYPKNGVSNFNEKFKGRVTMTTDTSTSTAYMELRSLRSDDTAVYYCARQRDYWGQGTLVTVSS VL: DVVMTQSPLSLPVTLGQPASISCRSSQSLEYGDGYTYLEWYLQRPGQSPRLLIYGVSNRFSGVPDRFIGSGSGTDFTLKISRVEAEDVGVYYCFQATHDPNTFGAGTKLEIK
1.36

// returns reported EC50 for input 31D9B3 H1L1 hIgG1 (antibody, V domains shown, Humanized, human IgG1; also called 31D9B3 H1L1 hlgG1) VH: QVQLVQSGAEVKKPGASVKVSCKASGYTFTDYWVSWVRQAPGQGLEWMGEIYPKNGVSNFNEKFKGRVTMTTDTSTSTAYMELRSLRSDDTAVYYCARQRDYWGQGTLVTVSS VL: DVVMTQSPLSLPVTLGQPASISCRSSQSLEYGDGYTYLEWFQQRPGQSPRRLIYGVSNRFSGVPDRFSGSGSGTDFTLKISRVEAEDVGVYYCFQATHDPNTFGQGTKLEIK
89.1

// returns reported EC50 for input xi31D9B3 hIgG1 (antibody, V domains shown, Murine variable domains in human chimeric format, human IgG1; also called xi31D9B3 hlgG1; 31D9B3 hlgG1) VH: QVKLLQSGAALVKPGASVKMSCKASGYTFTDYWVSWVKQSHGKSLEWIGEIYPKNGVSNFNEKFKGKATLTVDKSTSTAYMELRRLTSEDSAIFYCTRQRDYWGQGVMVTVSS VL: DVVLTQTPGSLSVTLGDQASISCRSSQSLEYGDGYTYLEWYLQKPGQSPQLLIYGVSNRFSGVPDRFIGSGSGTDFTLKISRVEPEDLGVYYCFQATHDPNTFGAGTKLELK
0.88
